The origin of these recorded values is ChEMBL document CHEMBL1201862.

- Tested on: SK-MEL-28
- test: NCI tumour cell line growth inhibition, 48 h
The source made the active and inactive calls. No stated cut-off is given here; in the data, active = GI50 up to about 1.1 µM and inactive = higher.
I'd be grateful if you could share measured GI50 for these entries.

Below, 8 compounds whose answers are already recorded.
compound	GI50
COc1ccccc1N1C(=O)/C(=C\c2cc(OC)c(OC)c(OC)c2)S(=O)(=O)C1c1ccccc1 (stereo not given)	27.4 µM (inactive)
O=C1Nc2cccc(C(F)(F)F)c2/C1=N/Nc1ccccc1[N+](=O)[O-]	63.5 µM (inactive)
CSc1nn(C)cc2ncnc1-2	> 100 µM (inactive)
Cc1cc(S(=O)(=O)Nc2nc(Nc3ccc4ccccc4c3)n[nH]2)c(S)cc1Cl	> 100 µM (inactive)
CSc1[nH]nc(N)c1C(=O)Nc1ccccc1	> 100 µM (inactive)
COC(=O)C1C(C(=O)OC)C2C(=O)C3C(C(=O)OC)C(C(=O)OC)C3C(=O)C12 (stereo not given)	> 100 µM (inactive)
C/C(=N\Nc1ccccc1)C(CN(C)C)C(c1ccccc1)c1c(O)c2ccccc2oc1=O (stereo not given)	> 100 µM (inactive)
N#Cc1cnn2ccn(C3OC(COC(=O)c4ccccc4)C(OC(=O)c4ccccc4)C3OC(=O)c3ccccc3)c12 (stereo not given)	> 21.5 µM (inactive)

Quick request: GI50 for each listed item, please.
1. CN(C)CCCNc1ccc2nnn3c4ccc([N+](=O)[O-])cc4c(=O)c1c23
2. COc1ccc(/C(=N/O)C(c2ccc(OC)cc2)C2C(=O)Oc3ccccc32)cc1 (stereo not given)

4.6 µM (inactive)
78.2 µM (inactive)

* * *

- Tested on: SR
- test: NCI tumour cell line growth inhibition, 48 h
Calls of active or inactive are those of the source. Rule as the data show it: active = GI50 up to about 1.1 µM and inactive = higher.
Can you answer with just one of these options? yes = active, no = inactive

Known results for compounds:
compound	label
O=C1c2ccccc2-c2ccc(O)cc21	no
O=C1CCCN1C(=O)CS(=O)(=O)c1ccccc1	no
CC[C@@]1(O)C[C@H](OC2CC(N(C)C)C(O)C(C)O2)c2c(O)c3c(c(O)c2[C@H]1OC1CC(N(C)C)C(O)C(C)O1)C(=O)c1cccc(O)c1C3=O (stereo not given in full)	yes
Nc1nc(N)c(Cn2ccnc2)c(O)n1	no
CSc1nn(C)cc2ncnc1-2	no

So what was the verdict on CCCCCCCCCCCCCCCCCCNc1ccn(C2OC(COP(=O)(O)OCC3OC(n4cc(C)c(=O)[nH]c4=O)CC3F)C(O)C2O)c(=O)n1 (stereo not given) in this test? no

So what was the verdict on `Nn1nnc2ccccc21` in this test? no

So what was the verdict on `Cc1noc2c1C(=O)CCC2` in this test? no

* * *

- System: RXF 631
- test: NCI tumour cell line growth inhibition, 48 h
Calls of active or inactive are those of the source. No stated cut-off is given here; in the data, active = GI50 up to about 1.1 µM and inactive = higher.
measurement-label: GI50

smiles-string	measurement-label	test-result
O=C(CC(=O)c1ccc([N+](=O)[O-])cc1)C(=O)Nc1nccs1	GI50	> 100 µM (inactive)
CC1=C(C(=O)Nc2ccccc2C)C(c2ccccc2C)C(C(=O)Nc2ccccc2C)=C(C)N1	GI50	26.1 µM (inactive)
O=C(Nc1ccc(C(F)(F)F)cc1[N+](=O)[O-])C(=O)Nn1c(S)nc2ccccc2c1=O	GI50	> 100 µM (inactive)
CCO/N=[N+](\[O-])N(CC)CC	GI50	> 100 µM (inactive)
CC(=O)/C=C\C(=O)NNS(=O)(=O)c1ccc(C)cc1	GI50	> 100 µM (inactive)

Quick request: GI50 for each listed item, please.
1. Cc1cc(N(CCC#N)CCC#N)ccc1/C(Sc1ccccc1)=C(\NC(=O)/C=C/c1ccccc1)C(=O)Sc1ccccc1
2. BrC/C=C/C[P+](c1ccccc1)(c1ccccc1)c1ccccc1
3. NC(=O)c1c(-c2ccccc2)c(-c2ccccc2)cc2c(=O)c3ccccc3[nH]c12
4. Cc1nc(N)nc(N)c1CCCCc1ccccc1
5. N#C[C@]12CC3(CC[C@H]1CC1(C2)OCCO1)OCCO3

1. 2.79 µM (inactive)
2. > 100 µM (inactive)
3. 27.4 µM (inactive)
4. 11.9 µM (inactive)
5. > 100 µM (inactive)
